- subject_of_test: HDAC6 (Homo sapiens (Human), UniProt Q9UBN7)
- Sequence (Q9UBN7 whole entry): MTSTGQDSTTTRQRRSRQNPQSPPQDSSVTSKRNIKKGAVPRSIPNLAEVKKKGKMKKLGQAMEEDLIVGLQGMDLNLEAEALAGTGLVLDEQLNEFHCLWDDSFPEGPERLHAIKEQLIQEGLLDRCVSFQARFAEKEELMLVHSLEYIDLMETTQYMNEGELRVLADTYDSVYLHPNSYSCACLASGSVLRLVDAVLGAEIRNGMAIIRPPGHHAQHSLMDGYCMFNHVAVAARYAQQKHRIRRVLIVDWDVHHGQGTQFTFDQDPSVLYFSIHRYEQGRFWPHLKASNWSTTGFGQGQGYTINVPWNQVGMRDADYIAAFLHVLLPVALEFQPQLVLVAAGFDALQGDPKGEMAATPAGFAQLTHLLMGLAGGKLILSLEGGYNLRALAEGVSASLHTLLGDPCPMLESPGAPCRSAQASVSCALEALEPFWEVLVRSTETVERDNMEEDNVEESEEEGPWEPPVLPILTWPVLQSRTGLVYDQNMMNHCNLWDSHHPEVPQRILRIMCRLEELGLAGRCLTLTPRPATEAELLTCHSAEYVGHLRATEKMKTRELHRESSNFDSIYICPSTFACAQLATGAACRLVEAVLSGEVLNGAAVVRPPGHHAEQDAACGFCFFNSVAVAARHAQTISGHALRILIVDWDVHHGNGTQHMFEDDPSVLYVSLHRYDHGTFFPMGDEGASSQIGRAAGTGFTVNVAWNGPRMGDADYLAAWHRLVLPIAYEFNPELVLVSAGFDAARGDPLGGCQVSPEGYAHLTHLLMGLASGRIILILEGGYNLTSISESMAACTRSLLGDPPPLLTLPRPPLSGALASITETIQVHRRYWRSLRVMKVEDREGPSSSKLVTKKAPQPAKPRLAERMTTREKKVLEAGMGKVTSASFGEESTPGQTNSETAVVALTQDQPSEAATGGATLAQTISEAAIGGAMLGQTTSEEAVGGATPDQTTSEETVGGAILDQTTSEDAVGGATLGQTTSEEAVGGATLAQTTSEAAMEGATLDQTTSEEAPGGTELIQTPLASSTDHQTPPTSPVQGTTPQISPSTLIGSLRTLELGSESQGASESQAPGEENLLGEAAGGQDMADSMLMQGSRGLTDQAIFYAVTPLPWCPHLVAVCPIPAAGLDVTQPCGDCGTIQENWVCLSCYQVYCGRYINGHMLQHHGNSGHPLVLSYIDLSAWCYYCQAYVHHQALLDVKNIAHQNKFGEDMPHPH
- condition: read-out: HDAC6 IC50
IC50 strictly under 4 nM means t; at 4 nM or over means f.

1) O=C(NO)c1cnc(NCc2cccc(C(F)(F)F)c2)nc1 ... t
2) C[C@H](Nc1ncc(C(=O)NO)cn1)c1ccccc1 [Compound 65] ... f
3) O=C(NO)c1cnc(NC2(c3cc(F)cc(F)c3)CCOCC2)nc1 ... f
4) O=C(NO)c1cnc(NC2CCOCC2)nc1 ... f
5) Cc1cc(Cl)ccc1CNc1ncc(C(=O)NO)cn1 ... t
6) O=C(NO)c1cnc(NCc2c(CO)cccc2CO)nc1 ... f
7) CC(C)(Nc1ncc(C(=O)NO)cn1)c1ccc(Cl)cc1F ... t
